Data provenance is patent US12371454B2.

Target: Kras and SOS1 (biotin-tagged human Kras loaded with GDP, His-tagged human SOS1) (Homo sapiens, UniProt P01116, G12D)
Construct: made in house; host or cells: E. coli (stated for Kras only)
Sequence (P01116 1-188 isoform P01116-2 G12D): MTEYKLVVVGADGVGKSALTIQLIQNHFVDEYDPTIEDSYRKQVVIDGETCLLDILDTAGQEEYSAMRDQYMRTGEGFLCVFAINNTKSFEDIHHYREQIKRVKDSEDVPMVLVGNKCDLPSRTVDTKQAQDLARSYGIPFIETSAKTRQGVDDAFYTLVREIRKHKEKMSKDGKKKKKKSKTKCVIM
Experiment: Protein-protein interaction inhibition between Kras and SOS1 (KrasGl2D-SOS PPI) using AlphaScreen
Format: binding
Conditions: AlphaScreen; biotin-tagged human Kras loaded with GDP, His-tagged human SOS1; read-out: KRAS G12D-SOS PPI IC50
pIC50: −log10 of the molar value. Positions of bridges follow the written chain, without caps; N, C: chain ends. Non-standard residues stand in square brackets, D forms with d. Residues, ends and D or L forms follow the SMILES beside them. *: point of attachment. hPhe(3-Cl-4-CF3) = N[C@@H](CCc1ccc(C(F)(F)F)c(Cl)c1)C(=O)O; NMePhe(4-CF3) = CN[C@@H](Cc1ccc(C(F)(F)F)cc1)C(=O)O; hPhe(4-CF3) = N[C@@H](CCc1ccc(C(F)(F)F)cc1)C(=O)O; NMePhe(4-Cl) = CN[C@@H](Cc1ccc(Cl)cc1)C(=O)O; Phe(3,5-F2) = N[C@@H](Cc1cc(F)cc(F)c1)C(=O)O; NMeAla(cPent) = CN[C@@H](CC1CCCC1)C(=O)O; NMeGly(cPent) = CN[C@H](C(=O)O)C1CCCC1; NMeGly(cBu) = CN[C@H](C(=O)O)C1CCC1; NMeCha = CN[C@@H](CC1CCCCC1)C(=O)O; NMeF = CN[C@@H](Cc1ccccc1)C(=O)O; NMeD = CN[C@@H](CC(=O)O)C(=O)O; NMeL = CN[C@@H](CC(C)C)C(=O)O; NMeV = CN[C@H](C(=O)O)C(C)C; d(β3hA) = C[C@@H](N)CC(=O)O; Pip = O=C(O)[C@@H]1CCCCN1; Morpholide = C1CN(*)CCO1; NMeA = CN[C@@H](C)C(=O)O; Piperidide = C1CCN(*)CC1; Pyrrolidide = C1CCN(*)C1; Ac5c = NC1(C(=O)O)CCCC1; Ac4c = NC1(C(=O)O)CCC1; Sar = CNCC(=O)O
QUANTITY KIND: pIC50

- MOLECULE: "CC[C@H](C)[C@@H]1NC(=O)[C@H](CC(C)C)N(C)C(=O)C[C@@H](C)NC(=O)[C@H](C2CCCC2)N(C)C(=O)C2(CCC2)NC(=O)[C@@H]2CCCN2C(=O)[C@H](CCc2ccc(C(F)(F)F)c(Cl)c2)NC(=O)CN(C)C(=O)[C@H](Cc2ccc(C(F)(F)F)cc2)N(C)C(=O)CN(C)C(=O)CN(C)C1=O [Compound 1508] (cyclo([Ac4c][NMeGly(cPent)][d(β3hA)][NMeL]I[Sar][Sar][NMePhe(4-CF3)][Sar][hPhe(3-Cl-4-CF3)]P))"
  RECORDED NUMBER: 8.89
- MOLECULE: "CC[C@H](C)[C@@H]1NC(=O)[C@@H]2CCCCN2C(=O)C[C@@H](C)NC(=O)[C@H](CC(C)C)N(C)C(=O)C2(CCCC2)NC(=O)[C@@H]2CCCN2C(=O)[C@H](CCc2ccc(C(F)(F)F)cc2)NC(=O)CN(C)C(=O)[C@H](CC2CCCCC2)N(C)C(=O)CN(C)C(=O)CN(C)C1=O [Compound 1097] (cyclo([Ac5c][NMeL][d(β3hA)][Pip]I[Sar][Sar][NMeCha][Sar][hPhe(4-CF3)]P))"
  RECORDED NUMBER: 6.64
- MOLECULE: "CC[C@H](C)[C@@H]1NC(=O)[C@H](C2CCC2)N(C)C(=O)C[C@@H](C(=O)N2CCCCC2)N(C)C(=O)[C@H](C(C)C)N(C)C(=O)C2(CCCC2)NC(=O)[C@@H]2CCCN2C(=O)[C@H](CCc2ccc(C(F)(F)F)c(Cl)c2)NC(=O)CN(C)C(=O)[C@H](CC2CCCCC2)N(C)C(=O)CN(C)C(=O)CN(C)C1=O [Compound 948] ([NMeGly(cBu)]I[Sar][Sar][NMeCha][Sar][hPhe(3-Cl-4-CF3)]P[Ac5c][NMeV][NMeD]-Piperidide; lactam N-11)"
  RECORDED NUMBER: 8.51
- MOLECULE: "CC[C@H](C)[C@@H]1NC(=O)[C@H](CC(C)C)N(C)C(=O)C[C@@H](C(=O)N2CCOCC2)N(C)C(=O)[C@H](C(C)C)N(C)C(=O)C2(CCCC2)NC(=O)[C@@H]2CCCN2C(=O)[C@H](CCc2ccc(C(F)(F)F)c(Cl)c2)NC(=O)CN(C)C(=O)[C@H](CC2CCCC2)N(C)C(=O)CN(C)C(=O)CN(C)C1=O [Compound 1848] ([NMeL]I[Sar][Sar][NMeAla(cPent)][Sar][hPhe(3-Cl-4-CF3)]P[Ac5c][NMeV][NMeD]-Morpholide; lactam N-11)"
  RECORDED NUMBER: 8.85
- MOLECULE: "CC[C@H](C)[C@@H]1NC(=O)[C@H](C)N(C)C(=O)C[C@@H](C(=O)N2CCCC2)NC(=O)[C@H](C(C)C)N(C)C(=O)[C@H](Cc2ccccc2)N(C)C(=O)[C@H](Cc2ccccc2)NC(=O)[C@H](Cc2cc(F)cc(F)c2)NC(=O)CN(C)C(=O)[C@H](Cc2ccc(Cl)cc2)N(C)C(=O)CN(C)C(=O)CN(C)C1=O [Compound 21] ([NMeA]I[Sar][Sar][NMePhe(4-Cl)][Sar][Phe(3,5-F2)]F[NMeF][NMeV]D-Pyrrolidide; lactam N-11)"
  RECORDED NUMBER: 6.60
